- TEST_SUMMARY: Cytotoxicity against human HepG2 cells assessed as cell viability after 72 hrs by MTT assay
- Type: cell-based
MEASURED_PARAMETER: CC50 at 72 h

Please review the entries below; each comes with its answer.
CC50 at 72 h for COc1ccc(C(c2c(O)c3ccccc3oc2=O)c2c(O)c3ccccc3oc2=O)cc1COc1ccc(NC(C)=O)cc1 is 162 µM

CC50 at 72 h for CC1(C)CC(=O)C2=C(C1)c1c(ccc3ccccc13)NC2c1ccc(-c2ccc(O)c(C(=O)O)c2)o1 (stereo not drawn) is 58.6 µM

Moving on to the next compound.
CC50 at 72 h for COc1ccc(C(c2c(O)c3ccccc3oc2=O)c2c(O)c3ccccc3oc2=O)cc1CSc1nc2ccccc2s1 is 42.1 µM
